- test-system: A1R (Mus musculus, UniProt Q60612)
- Construct: To obtain the P1 fraction, cerebral cortex and spinal cord were homogenized in chilled sucrose; from tissue; host or cells: cerebral cortex and spinal cord membranes (P1 fraction) of SOD1-G93A transgenic and WT B6SJL mice
- Sequence (Q60612 1-326): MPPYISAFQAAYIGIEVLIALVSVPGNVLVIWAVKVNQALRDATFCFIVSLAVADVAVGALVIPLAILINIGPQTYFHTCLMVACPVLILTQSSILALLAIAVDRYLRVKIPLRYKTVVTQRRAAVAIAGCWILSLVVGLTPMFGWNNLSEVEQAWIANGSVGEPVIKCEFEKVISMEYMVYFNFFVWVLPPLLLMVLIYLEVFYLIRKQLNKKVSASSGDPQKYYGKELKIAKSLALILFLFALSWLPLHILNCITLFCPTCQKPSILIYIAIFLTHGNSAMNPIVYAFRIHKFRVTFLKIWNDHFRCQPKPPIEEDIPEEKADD
- Format: binding
- applied-conditions: spinal cord; WT mice age-matched to symptomatic (12–14 weeks old); mean ± SEM; read-out: DPCPX equilibrium dissociation constant (KD)
endpoint-name: Kd (nM)
Please respond with the number in nM and leave the unit unwritten.

For reference, reported Kd for CCCn1c(=O)c2[nH]c(C3CCCC3)nc2n(CCC)c1=O [DPCPX, [^3H]-8-Cyclopentyl-1,3-dipropylxanyine] stands at 4.32
